Just for reference, patent US10723765B2 is where these values come from.

- system.tested: human neutrophil elastase (Homo sapiens, UniProt P08246)
- Construct: purchased Serva Electrophoresis, Germany
- Sequence (P08246 30-267): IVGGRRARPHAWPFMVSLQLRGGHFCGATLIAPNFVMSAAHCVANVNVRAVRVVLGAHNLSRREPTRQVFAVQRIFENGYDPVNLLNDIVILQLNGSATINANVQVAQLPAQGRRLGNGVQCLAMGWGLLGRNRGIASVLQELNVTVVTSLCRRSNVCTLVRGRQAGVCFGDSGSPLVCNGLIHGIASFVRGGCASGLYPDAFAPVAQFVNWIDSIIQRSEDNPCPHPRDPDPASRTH
- assay.explanation: Inhibition of human neutrophil elastase (MeOSuc-AAPV-pNA hydrolysis)
- Type: biochemical
- measurement.context: 10 nM enzyme, 0.3 mM substrate, 37° C., pH 8; read-out: Human neutrophil elastase (hNE) IC50
Non-standard residues stand in square brackets, D forms with d. Residues, ends and D or L forms follow the SMILES beside them. Gly(octyl) = CCCCCCCC[C@H](N)C(=O)O; hArg = N=C(N)NCCCC[C@H](N)C(=O)O; Nle = CCCC[C@H](N)C(=O)O
IC50 values, listed per item
API: value field is a number in nM; no unit string.

Here are 2 molecules together with their reported answers.
- molecule: "CCCC[C@@H]1NC(=O)[C@H](CCCNC(=N)N)NC(=O)[C@@H]2CCCN2C(=O)[C@H]2CCCN2C(=O)[C@H](Cc2ccc(O)cc2)NC(=O)[C@H](CCCCN)NC(=O)[C@H](CCC(N)=O)NC(=O)[C@@H]2CCCN2C(=O)[C@@H]2CCCN2C(=O)[C@H]([C@@H](C)CC)NC(=O)[C@H](CO)NC(=O)[C@H](C)NC(=O)[C@H]([C@@H](C)O)NC1=O [Example 6] (cyclo(R[Nle]TASIPPQKY[dP]P))"
  IC50, nM: 15.5
- molecule: "CCCCCCCC[C@@H]1NC(=O)[C@@H]2CCCN2C(=O)[C@H]2CCCN2C(=O)[C@H]([C@@H](C)O)NC(=O)[C@H](CCCCN)NC(=O)[C@H](CCC(N)=O)NC(=O)[C@@H]2CCCN2C(=O)[C@@H]2CCCN2C(=O)[C@H]([C@@H](C)CC)NC(=O)[C@H](CO)NC(=O)[C@H](C)NC(=O)[C@H]([C@@H](C)O)NC(=O)[C@H](CCC(=O)O)NC1=O [Example 4] (cyclo([Gly(octyl)]ETASIPPQKT[dP]P))"
  IC50, nM: 7.9

Summary for this molecule, CC[C@H](C)[C@@H]1NC(=O)[C@H](CO)NC(=O)[C@H](C)NC(=O)[C@H]([C@@H](C)O)NC(=O)[C@H](CCC(=O)O)NC(=O)[C@H](CCCCNC(=N)N)NC(=O)[C@@H]2CCCN2C(=O)[C@H]2CCCN2C(=O)[C@H]([C@@H](C)O)NC(=O)[C@H](CCCCN)NC(=O)[C@H](CCC(N)=O)NC(=O)[C@@H]2CCCN2C(=O)[C@@H]2CCCN2C1=O [Example 9] (cyclo([hArg]ETASIPPQKT[dP]P)) : IC50 is 23.7
